Provenance of the data: the kinase profiling compilation of Christmann-Franck et al. (2016)

Field: residual activity. Provide a value for each of the compounds that follow.
Target: SGK2 (human)
Experiment: radiometric filter-binding kinase assay, Kinase HotSpot
Details: compound 0.5 µM; ATP 10 µM
One number for each entry, in %.

>>> reported_result("O=C(c1cc2cc(O)ccc2[nH]1)c1cc2cc(O)ccc2[nH]1")
94.3
>>> reported_result("O=C1c2ccccc2-c2nc3nnnn3nc21")
75.1
>>> reported_result("Ic1cccc(CSc2nnc(-c3ccncc3)o2)c1")
102
>>> reported_result("C[C@@H]1CCN(C(=O)CC#N)C[C@@H]1N(C)c1ncnc2[nH]ccc12")
104
>>> reported_result("CS(=O)(=O)CCNCc1ccc(-c2ccc3ncnc(Nc4ccc(OCc5cccc(F)c5)c(Cl)c4)c3c2)o1")
106

Please supply residual activity for each of the following items, keeping them in order.
1. CC(C)(C)c1cc(C=C(C#N)C#N)cc(Br)c1O
2. O=C1C(Cl)=C(N2C(=O)CCC2=O)C(=O)c2ccccc21
3. Cn1c2ccccc2c2c3c(c4c5ccccc5n(CCC#N)c4c21)CNC3=O
4. O=C1Nc2ccc(Br)cc2/C1=C\c1cc2c([nH]1)CCCC2
5. COc1ccc(Cl)cc1NC(=O)Nc1cc(C)nc2ccccc12
6. N#C/C(=C\c1ccc(O)c(O)c1)C(=O)NCc1ccccc1
7. COc1ccc2c(c1)c(C1=C(c3c[nH]c4ccccc34)C(=O)NC1=O)cn2CCCN(C)C

stdout:
[120, 99.5, 94, 101, 96.3, 101, 92.6]

// input: 3 compounds below; output: residual activity for each
1. CN(C)c1ccc(/C=C2\C(=O)Nc3ccccc32)cc1
2. Cc1cccc(-c2nc(C(C)(C)C)[nH]c2-c2ccc3c(c2)OCO3)n1
3. COc1cc(Nc2c(C#N)cnc3cc(OCCCN4CCN(C)CC4)c(OC)cc23)c(Cl)cc1Cl

stdout:
98.6
100
103

====

System: MKNK1 (human), Q9BUB5 [T385D; 165-205 del]
Sequence (Q9BUB5 whole entry, looked up, stated change not applied): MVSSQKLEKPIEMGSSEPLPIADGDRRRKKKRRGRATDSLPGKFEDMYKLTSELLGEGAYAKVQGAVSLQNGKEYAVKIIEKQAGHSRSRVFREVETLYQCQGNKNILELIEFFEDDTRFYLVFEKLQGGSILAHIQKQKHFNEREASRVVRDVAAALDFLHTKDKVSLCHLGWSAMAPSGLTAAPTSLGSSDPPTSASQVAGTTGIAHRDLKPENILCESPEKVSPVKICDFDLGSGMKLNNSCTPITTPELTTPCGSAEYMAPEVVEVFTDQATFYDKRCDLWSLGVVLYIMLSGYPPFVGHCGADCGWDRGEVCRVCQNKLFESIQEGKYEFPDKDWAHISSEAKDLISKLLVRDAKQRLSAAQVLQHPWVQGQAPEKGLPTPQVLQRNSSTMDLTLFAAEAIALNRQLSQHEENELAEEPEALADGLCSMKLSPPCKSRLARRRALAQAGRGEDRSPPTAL
Experiment: radiometric filter-binding kinase assay, Kinase HotSpot
Settings: compound 0.5 µM; ATP 10 µM
ATTRIBUTE_MEASURED: residual activity (%)
One number for each entry, in %.

Below are worked cases with known answers.
>>> reported_result("Cc1cc2ncc(-c3ccccc3)nc2cc1C")
80.3
>>> reported_result("COc1cc(Nc2c(C#N)cnc3cc(OCCCN4CCN(C)CC4)c(OC)cc23)c(Cl)cc1Cl")
96.9
>>> reported_result("Nc1ncnc2c1cnn2-c1ccccc1")
81.4
>>> reported_result("COc1cc2ncc(-c3ccccc3)nc2cc1OC")
104
>>> reported_result("O=C(O)/C=C/c1cc(Br)c(Br)c(Br)c1Br")
61.1

Hey, quick one: what's residual activity for each of these?
1. CCCCc1c(-c2ccc(O)cc2)[nH]c2nccnc12
2. CC(=O)c1ccc(N2CCOCC2)cc1O

stdout:
1: 94.5; 2: 102

Hey, can you go through the list below and give me residual activity for every item?
1. O=C(c1ccccc1)c1ccc(N2CCOCC2)cc1O
2. Nc1nc(Nc2ccc(S(N)(=O)=O)cc2)nn1C(=S)Nc1c(F)cccc1F
3. O=C1Nc2ccccc2/C1=C1\Nc2ccccc2\C1=N/O
4. CC(=O)O/N=C1\C(=C2\C(=O)Nc3cc(Br)ccc32)Nc2ccccc21
5. CC#CC(=O)Nc1cc2c(Nc3ccc(F)c(Cl)c3)ncnc2cn1

stdout:
103
23.4
99.6
95.2
89.5

====

Molecular target: BTK (human)
Experiment: radiometric filter-binding kinase assay, Kinase HotSpot
Conditions: compound 0.5 µM; ATP 10 µM
Kindly state residual activity for each of the entries shown.
Give bare numbers, in %.

Please review the following examples before continuing.
>>> reported_result("O=C1NC(=O)c2c1c1c3ccccc3[nH]c1n1cncc21")
83.9
>>> reported_result("CC(C)(C)c1cc(C=C(C#N)C#N)cc(Br)c1O")
101
>>> reported_result("Cc1cccc(-c2nc(C(C)(C)C)[nH]c2-c2ccc3c(c2)OCO3)n1")
118

Give me residual activity for each of these compounds, listed below.
1. N#C/C(=C\c1ccc(O)c(O)c1)C(=O)NCc1ccccc1
2. COc1cc(Nc2c(C#N)cnc3cc(OCCCN4CCN(C)CC4)c(OC)cc23)c(Cl)cc1Cl

stdout:
99.8
5.69

For every item in the list below, what is its measured residual activity?
1. CCCCc1c(-c2ccc(OC)cc2)[nH]c2nccnc12
2. O=C(c1cc2cc(O)ccc2[nH]1)c1cc2cc(O)ccc2[nH]1
3. CN(C)c1ccc(/C=C2\C(=O)Nc3ccccc32)cc1
4. CS(=O)(=O)CCNCc1ccc(-c2ccc3ncnc(Nc4ccc(OCc5cccc(F)c5)c(Cl)c4)c3c2)o1
5. c1ccc2c(-c3ccncc3)c[nH]c2c1
6. O=C1c2ccccc2-c2nc3nnnn3nc21
7. COc1ccc2c(c1)/C(=C/c1cnc[nH]1)C(O)=N2

stdout:
64.7
86.8
104
103
104
90.6
101

Items follow; give residual activity for each.
1. COc1ccc(S(=O)(=O)N(CCO)c2ccccc2CN(C)C/C=C/c2ccc(Cl)cc2)cc1
2. O=C1C(Cl)=C(N2C(=O)CCC2=O)C(=O)c2ccccc21
3. COc1cc2ncnc(Nc3ccc(OCc4ccccc4)cc3)c2cc1OC
4. Fc1ccc(-c2nc3n(c2-c2ccncc2)CCS3)cc1
5. N#Cc1c[nH]c2c[nH]/c(=N\Cc3cccnc3)cc2/c1=N\c1ccc(F)c(Cl)c1
6. COc1ccc2c(c1)c(C1=C(c3c[nH]c4ccccc34)C(=O)NC1=O)cn2CCCN(C)C
7. Ic1cccc(CSc2nnc(-c3ccncc3)o2)c1
8. Cc1nc(-c2ccccc2)c(-c2ccncc2)o1

stdout:
1: 96.4; 2: 103; 3: 90.6; 4: 103; 5: 98.3; 6: 90.2; 7: 95.6; 8: 98.3

====

Target: UniProt Q9UK32
Sequence (Q9UK32 whole entry, looked up): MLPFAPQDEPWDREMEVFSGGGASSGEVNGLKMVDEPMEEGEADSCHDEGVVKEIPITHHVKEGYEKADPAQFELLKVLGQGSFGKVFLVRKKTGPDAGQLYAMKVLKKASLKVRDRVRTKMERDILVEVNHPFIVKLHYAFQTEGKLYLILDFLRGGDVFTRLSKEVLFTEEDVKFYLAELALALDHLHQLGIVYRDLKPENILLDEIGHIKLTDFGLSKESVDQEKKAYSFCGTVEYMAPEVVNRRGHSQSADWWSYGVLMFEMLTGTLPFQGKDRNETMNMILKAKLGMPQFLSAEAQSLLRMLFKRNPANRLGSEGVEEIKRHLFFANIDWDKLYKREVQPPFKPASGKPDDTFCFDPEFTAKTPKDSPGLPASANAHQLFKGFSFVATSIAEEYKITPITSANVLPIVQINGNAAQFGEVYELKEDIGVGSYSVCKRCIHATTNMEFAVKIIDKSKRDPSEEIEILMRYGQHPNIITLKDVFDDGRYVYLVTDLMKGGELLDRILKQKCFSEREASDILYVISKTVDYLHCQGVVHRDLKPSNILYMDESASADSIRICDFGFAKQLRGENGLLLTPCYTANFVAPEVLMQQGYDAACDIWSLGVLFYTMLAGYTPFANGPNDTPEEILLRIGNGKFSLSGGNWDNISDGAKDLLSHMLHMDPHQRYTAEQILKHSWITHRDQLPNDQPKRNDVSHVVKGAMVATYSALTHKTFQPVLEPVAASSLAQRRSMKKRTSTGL
Experiment: radiometric filter-binding kinase assay, Kinase HotSpot
Conditions: compound 0.5 µM; ATP 10 µM
Answer each item with its documented residual activity.
Numbers only, in %.

Below, 4 compounds whose answers are already recorded.
>>> reported_result("N#Cc1c[nH]c2c[nH]/c(=N\\Cc3cccnc3)cc2/c1=N\\c1ccc(F)c(Cl)c1")
104
>>> reported_result("N#C/C(=C\\c1ccc(O)c(O)c1)C(=O)NCc1ccccc1")
108
>>> reported_result("CN(C)S(=O)(=O)c1ccc2c(c1)/C(=C/c1cc3c([nH]1)CCCC3)C(=O)N2")
67.4
>>> reported_result("COc1cc2ncnc(Nc3ccc(Oc4ccccc4)cc3)c2cc1OC")
111

I need residual activity for every entry listed below, if you could help.
1. C[C@@H]1CCN(C(=O)CC#N)C[C@@H]1N(C)c1ncnc2[nH]ccc12
2. Cc1cncc2cccc(S(=O)(=O)N3CCCN(C(=O)CN)C[C@H]3C)c12
3. CCCCc1c(-c2ccc(OC)cc2)[nH]c2nccnc12
4. CO[C@@H]1[C@H](N(C)C(=O)c2ccccc2)C[C@H]2O[C@]1(C)n1c3ccccc3c3c4c(c5c6ccccc6n2c5c31)C(=O)NC4
5. COc1cc2ncnc(Nc3ccc(OCc4ccccc4)cc3)c2cc1OC
6. CN(C)CCCn1cc(C2=C(c3c[nH]c4ccccc34)C(=O)NC2=O)c2ccccc21
7. CS(=O)(=O)CCNCc1ccc(-c2ccc3ncnc(Nc4ccc(OCc5cccc(F)c5)c(Cl)c4)c3c2)o1
8. COc1ccc2c(c1)/C(=C/c1cnc[nH]1)C(O)=N2

stdout:
1. 98.1
2. 105
3. 78.2
4. 1.15
5. 95.9
6. 3.97
7. 108
8. 48.8

====

I'd appreciate it if you could supply residual activity values for the items below.
Biological target: MAP2K2 (human) (UniProt P36507)
Sequence (P36507 whole entry, looked up): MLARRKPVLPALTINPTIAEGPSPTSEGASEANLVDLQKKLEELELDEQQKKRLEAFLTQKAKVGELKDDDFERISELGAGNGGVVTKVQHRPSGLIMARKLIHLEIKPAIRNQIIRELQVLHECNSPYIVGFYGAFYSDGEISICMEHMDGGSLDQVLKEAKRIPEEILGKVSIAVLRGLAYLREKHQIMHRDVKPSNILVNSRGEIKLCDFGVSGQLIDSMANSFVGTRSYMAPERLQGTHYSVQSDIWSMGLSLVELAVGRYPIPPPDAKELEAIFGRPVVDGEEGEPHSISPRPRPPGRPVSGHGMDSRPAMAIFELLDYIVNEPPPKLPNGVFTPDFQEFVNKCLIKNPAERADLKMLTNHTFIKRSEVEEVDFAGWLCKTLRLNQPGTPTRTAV
Assay: radiometric filter-binding kinase assay, Kinase HotSpot
Conditions: compound 0.5 µM; ATP 10 µM
Answers are plain numbers, in %.

>>> reported_result("COc1ccc2c(c1)c(C1=C(c3c[nH]c4ccccc34)C(=O)NC1=O)cn2CCCN(C)C")
103

For each of the compounds below, note its residual activity.
1. Cc1cncc2cccc(S(=O)(=O)N3CCCN(C(=O)CN)C[C@H]3C)c12
2. CN(C)CCCn1cc(C2=C(c3c[nH]c4ccccc34)C(=O)NC2=O)c2ccccc21
3. O=C1c2ccccc2-c2nc3nnnn3nc21
4. N#Cc1c[nH]c2c[nH]/c(=N\Cc3cccnc3)cc2/c1=N\c1ccc(F)c(Cl)c1
5. O=C(c1cc2cc(O)ccc2[nH]1)c1cc2cc(O)ccc2[nH]1
6. Cn1c2ccccc2c2c3c(c4c5ccccc5n(CCC#N)c4c21)CNC3=O
7. Ic1cccc(CSc2nnc(-c3ccncc3)o2)c1
8. COc1ccc2c(c1)/C(=C/c1cnc[nH]1)C(O)=N2

stdout:
1. 106
2. 98.9
3. 94.7
4. 105
5. 98.8
6. 92.5
7. 102
8. 108
